The measured values listed here are drawn from paper PMC7891582.

Target: CYP2C19 (Homo sapiens)
Experiment: Omeprazole
Conditions: human, plasma, oral, 40 mg
readout type: AUC(0-t)
Dear colleague, please send the value followed by its unit.

Please indicate recorded AUC(0-t) of COc1ccc2[nH]c([S+]([O-])Cc3ncc(C)c(OC)c3C)nc2c1 (stereo not shown) [omeprazole] measured with CYP2C19 (Homo sapiens).
1.73 µg·h/mL

---

Molecular target: CYP2C19 (Homo sapiens)
Assay: Omeprazole
Conditions: human, plasma, oral, 40 mg
readout type: AUC(0-inf)
Dear colleague, please send the value followed by its unit.

Provide one value: measured AUC(0-inf) of COc1ccc2[nH]c([S+]([O-])Cc3ncc(C)c(OC)c3C)nc2c1 (stereo not shown)
1740 ng·h/mL

---

Biological target: CYP2C19 (Homo sapiens, UniProt P33261)
Sequence (P33261 whole entry): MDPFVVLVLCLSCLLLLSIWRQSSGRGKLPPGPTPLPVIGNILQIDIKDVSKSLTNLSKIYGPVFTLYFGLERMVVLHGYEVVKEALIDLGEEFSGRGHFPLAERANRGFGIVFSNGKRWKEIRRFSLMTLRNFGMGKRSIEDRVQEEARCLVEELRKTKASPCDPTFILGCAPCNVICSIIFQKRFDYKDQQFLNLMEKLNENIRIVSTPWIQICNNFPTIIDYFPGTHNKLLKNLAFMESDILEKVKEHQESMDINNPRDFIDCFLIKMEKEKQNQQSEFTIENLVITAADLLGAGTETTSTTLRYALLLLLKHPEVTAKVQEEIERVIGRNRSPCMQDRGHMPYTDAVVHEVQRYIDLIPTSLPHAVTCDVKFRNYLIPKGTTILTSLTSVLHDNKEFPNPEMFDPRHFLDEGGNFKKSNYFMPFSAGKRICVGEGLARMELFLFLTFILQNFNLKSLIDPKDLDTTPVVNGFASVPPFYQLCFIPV
Test: Omeprazole
Details: human, plasma, oral, 40 mg
readout type: tmax (h)
Give the number; h is assumed, so skip it.

Please indicate recorded tmax of COc1ccc2[nH]c([S+]([O-])Cc3ncc(C)c(OC)c3C)nc2c1 (stereo not shown) measured with CYP2C19 (Homo sapiens, UniProt P33261).
2.25

---

Molecular target: CYP2C19 (Homo sapiens, UniProt P33261)
Assay: Omeprazole
Details: human, plasma, po, 40 mg
readout type: Cmax (ng/mL)
Give the number; ng/mL is assumed, so skip it.

Provide one value: measured Cmax of COc1ccc2[nH]c([S+]([O-])Cc3ncc(C)c(OC)c3C)nc2c1 (stereo not shown)
908
